Can you tell me pEC50 for the items I'm about to list?
- Species on record: Oryctolagus cuniculus
- test.name: Concentration required to relax phenylephrine-precontracted aortic rings by 50% in endothelium denuded rabbit aorta
- test.context: read-out: ED50 (the source's name)
Answers are plain numbers, as −log10 of the molar value.

Look up pEC50 for the entries below, preserving their order.
1. C#CC(C)ON=C1CCN(C)CC1 (stereo not given)
2. CON=C1CCN(C)CC1
3. C#CCCON=C1CC2CCC(C1)N2C
4. CCC#CCON=C1CCN(C)CC1
5. C#CCON=C1CCN(C)CC1
6. CC#CCON=C1CC2CCC(C1)N2C
7. CC#CCON=C1CCN(C)CC1
8. C#CCC(C)ON=C1CCN(C)CC1 (stereo not given)

Result:
1: 4.39; 2: 3.59; 3: 4.82; 4: 4.92; 5: 4.96; 6: 5.32; 7: 5.06; 8: 4.60

Parameter requested: pEC50. Apply to each item below.
1. C#CC(C)ON=C1CC2CCC(C1)N2C (stereo not given)
2. CC#CCCON=C1CC2CCC(C1)N2C
3. C[N+](C)(C)CC#CCOC(=O)Nc1cccc(Cl)c1
4. C#CCCCON=C1CC2CCC(C1)N2C

Result:
4.59
5.01
6.46
5.19

Below is a list of molecules. For each, state its recorded pEC50.
1. C#CCC(C)ON=C1CC2CCC(C1)N2C (stereo not given)
2. CCC#CCON=C1CC2CCC(C1)N2C

Result:
1: 4.64; 2: 5.46

Please fill in: pEC50 reported for CON=C1CC2CCC(C1)N2C = 4.96

Where do these numbers come from? They come from ChEMBL document CHEMBL1131062.
